# Kd per entry
SUBJECT OF TEST: T1, recombinant human ILT3 ectodomain with C-terminal histidine tag (human, UniProt Q8NHJ6 22-259)
T1 construct: also called recombinant ILT3; hILT3; not shown: C-terminal histidine tag
ASSAY DETAILS: BLI (Octet Red), antibody on Protein A biosensors, recombinant ILT3 in solution
Your answer is read as nM, so omit the unit and give the number.

17E8_27C5 (antibody, V domains shown, Recombinant antibody from CHO cells) VH: QVQLVESGGGVVQPGRSLRLSCAASGFTFSNYGMHWVRQAPGKGLEWMAGIWFDGTNKYYIDSVKGRFTISRDNSKNTLYLQMNNLRAEDTAVYYCARDVISMVRGVPFDYWGQGTLVTVSS VL: DAVVTQESALTTSPGETVTLTCRSSTGAVTTSNYANWVQEKPDHLFTGLIGGINNRAPGVPARFSGSLIGDKAALTITGAQTEDEAIYFCALWYSNHWVFGGGTKLTVLG | 2
16B10_27D2 (antibody, V domains shown, Recombinant antibody from CHO cells) VH: QVQLVESGGGVVQPGRSLRLSCAASGFTFNNYGMHWVRQAPGKGLEWVAIIWNDGSNPYYADSVKGRFTISRDNSKNTLYLQMNSLRAEDTAVYYCVRDSSSWFVNYFDYWGQGTLVTVSS VL: EIVMTQSPATLSVSPGERATLSCRASQSVNRNLAWYQQKPGQAPRLLIYGASTRATGIPASFSGSGSGTEFTLTISSLQSEDFAVYYCQHYNHWPLTFGGGTKVEIK | 1

With those in mind, consider the next binder.
Query :: # input binder: 1E12H10_7A1 (antibody, V domains shown) VH: QVQLVESGGGVVQPGRSLRLSCATSGFTFSSYGMHWVRQAPGKGLEWVALIWFDGGNQYYADSVKGRFTISRDNSKNTLYLQLNSLRAEDTAVYFCARDVISMVRGVPFDYWGQGTLVTVSS VL: DAVVTQESALTTSPGETVTLTCRSSTGAVTTGNYANWVQEKPDHLFTGLIGGIKNRVPGVPARFSGSLIGDRAALTITGAQTEDEAIYFCALWYSNHWVFGGGTKLTVLG ; wanted: its Kd
Result :: 3
